Values compiled from patent US20250186408A1.

For reference, IC50 measured on UniProt P41143:

1. CC(C)(C)c1ccc(C#CC(O)c2ccccc2)cc1 (racemic)
> 10 µM

Now consider the entry below.
Consider the molecule `Clc1cccc(C#Cc2n[nH]c3ncccc23)c1` and give its recorded IC50.
> 10 µM

----------
Molecular target: SERT (Homo sapiens)
Construct: Eurofins DiscoverX Corporation 87-1003DR; host or cells: unnamed cell lines
Sequence (P31645 whole entry): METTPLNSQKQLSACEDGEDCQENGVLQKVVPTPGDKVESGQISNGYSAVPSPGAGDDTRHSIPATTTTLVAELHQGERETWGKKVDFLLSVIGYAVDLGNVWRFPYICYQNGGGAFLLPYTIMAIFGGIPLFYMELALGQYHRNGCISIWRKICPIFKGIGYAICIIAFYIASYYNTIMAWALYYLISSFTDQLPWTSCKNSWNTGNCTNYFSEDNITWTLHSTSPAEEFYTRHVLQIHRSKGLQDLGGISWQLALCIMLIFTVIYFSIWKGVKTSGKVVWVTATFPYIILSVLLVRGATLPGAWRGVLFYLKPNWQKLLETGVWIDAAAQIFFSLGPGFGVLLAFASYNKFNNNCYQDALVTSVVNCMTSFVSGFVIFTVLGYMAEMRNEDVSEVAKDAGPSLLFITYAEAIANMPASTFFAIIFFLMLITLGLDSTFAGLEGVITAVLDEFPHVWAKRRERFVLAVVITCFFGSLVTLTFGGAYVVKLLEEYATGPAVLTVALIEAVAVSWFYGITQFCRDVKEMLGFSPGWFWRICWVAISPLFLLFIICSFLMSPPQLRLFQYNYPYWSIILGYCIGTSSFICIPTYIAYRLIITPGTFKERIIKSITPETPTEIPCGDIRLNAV
Test: Transporter SERT Blocker
Format: cell-based
pIC50: −log10 of the molar value.
EXPERIMENTAL READOUT: pIC50

1) Clc1cccc(C#Cc2n[nH]c3ncccc23)c1 [Compound 10.1]
< 5.00

Consider the molecule CC(C)(C)c1ccc(C#CC(O)c2ccccc2)cc1 (racemic) [Compound 3.3] and give its recorded pIC50.
< 5.00

----------
Kindly state IC50 for each of the entries shown.
Molecular target: UniProtKB P35968
Sequence (P35968 20-1356): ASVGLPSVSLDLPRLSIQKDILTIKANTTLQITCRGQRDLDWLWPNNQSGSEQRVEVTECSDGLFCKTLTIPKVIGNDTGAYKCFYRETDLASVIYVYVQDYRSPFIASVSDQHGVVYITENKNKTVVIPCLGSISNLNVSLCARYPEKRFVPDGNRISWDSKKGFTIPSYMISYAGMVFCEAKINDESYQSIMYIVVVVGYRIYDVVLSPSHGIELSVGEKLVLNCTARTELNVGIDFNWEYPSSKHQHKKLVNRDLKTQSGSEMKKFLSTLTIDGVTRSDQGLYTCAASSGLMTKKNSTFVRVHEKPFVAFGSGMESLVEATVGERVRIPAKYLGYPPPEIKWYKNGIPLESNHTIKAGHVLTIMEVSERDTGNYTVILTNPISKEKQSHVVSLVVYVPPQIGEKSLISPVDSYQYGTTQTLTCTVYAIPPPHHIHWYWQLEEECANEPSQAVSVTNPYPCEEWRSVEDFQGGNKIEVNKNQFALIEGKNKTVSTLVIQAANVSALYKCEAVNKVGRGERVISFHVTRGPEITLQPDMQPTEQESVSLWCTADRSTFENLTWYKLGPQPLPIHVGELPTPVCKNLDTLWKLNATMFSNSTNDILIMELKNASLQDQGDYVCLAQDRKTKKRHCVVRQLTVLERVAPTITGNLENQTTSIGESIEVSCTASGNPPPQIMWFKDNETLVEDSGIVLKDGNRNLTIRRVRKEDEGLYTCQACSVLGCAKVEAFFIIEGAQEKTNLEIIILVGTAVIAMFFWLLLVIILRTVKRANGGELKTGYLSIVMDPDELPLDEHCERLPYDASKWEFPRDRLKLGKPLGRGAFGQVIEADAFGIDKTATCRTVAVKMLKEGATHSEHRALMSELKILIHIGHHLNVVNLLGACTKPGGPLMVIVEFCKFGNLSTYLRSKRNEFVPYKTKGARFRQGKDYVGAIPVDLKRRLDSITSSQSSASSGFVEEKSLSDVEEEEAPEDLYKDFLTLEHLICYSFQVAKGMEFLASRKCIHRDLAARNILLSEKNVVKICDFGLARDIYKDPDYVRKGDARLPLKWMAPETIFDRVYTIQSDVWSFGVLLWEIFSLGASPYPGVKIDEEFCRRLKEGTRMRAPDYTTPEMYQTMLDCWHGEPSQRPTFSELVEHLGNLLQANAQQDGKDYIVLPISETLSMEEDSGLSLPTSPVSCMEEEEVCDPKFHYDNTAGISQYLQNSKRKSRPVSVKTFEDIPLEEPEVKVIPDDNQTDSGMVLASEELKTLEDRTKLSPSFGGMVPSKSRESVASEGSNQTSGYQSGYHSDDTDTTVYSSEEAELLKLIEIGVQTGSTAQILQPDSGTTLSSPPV

1) Clc1cccc(C#Cc2n[nH]c3ncccc23)c1
> 10 µM

Now consider the entry below.
Enter measured IC50, system UniProtKB P35968, for the compound shown: CC(C)(C)c1ccc(C#CC(O)c2ccccc2)cc1 (racemic)
> 10 µM

----------
Molecular target: KvLQT1/minK (Homo sapiens)
Experiment: Ion Channel KvLQT1/minK Opener
Assay type: cell-based
Details: Ion Channel KvLQT1/minK Opener; read-out: RC50, result type EC50
pEC50: −log10 of the molar value.
EXPERIMENTAL READOUT: pEC50

Consider the molecule `Clc1cccc(C#Cc2n[nH]c3ncccc23)c1` and give its recorded pEC50.
< 5.00

----------
Biological target: UniProtKB P08588
Sequence (P08588 whole entry): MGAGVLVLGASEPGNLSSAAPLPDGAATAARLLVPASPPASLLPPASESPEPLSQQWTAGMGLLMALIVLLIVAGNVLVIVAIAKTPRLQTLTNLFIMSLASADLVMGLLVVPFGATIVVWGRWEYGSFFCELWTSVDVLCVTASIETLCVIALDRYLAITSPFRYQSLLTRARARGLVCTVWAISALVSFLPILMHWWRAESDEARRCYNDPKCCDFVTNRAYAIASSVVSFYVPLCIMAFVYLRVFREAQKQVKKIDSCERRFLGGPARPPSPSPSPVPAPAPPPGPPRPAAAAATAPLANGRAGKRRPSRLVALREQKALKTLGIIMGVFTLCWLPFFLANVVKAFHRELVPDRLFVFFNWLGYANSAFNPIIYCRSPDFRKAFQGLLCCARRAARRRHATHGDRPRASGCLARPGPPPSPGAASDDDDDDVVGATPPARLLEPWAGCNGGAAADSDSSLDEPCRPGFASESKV
Test: cAMP ADRB1 Agonist
Type: cell-based
pEC50: −log10 of the molar value.
EXPERIMENTAL READOUT: pEC50

Consider the compound CC(C)(C)c1ccc(C#CC(O)c2ccccc2)cc1 (racemic) [Compound 3.3] and give its recorded pEC50.
< 5.00

----------
Biological target: DAT (Homo sapiens, UniProt Q01959)
Construct: Eurofins DiscoverX Corporation 87-1003DR
Sequence (Q01959 whole entry): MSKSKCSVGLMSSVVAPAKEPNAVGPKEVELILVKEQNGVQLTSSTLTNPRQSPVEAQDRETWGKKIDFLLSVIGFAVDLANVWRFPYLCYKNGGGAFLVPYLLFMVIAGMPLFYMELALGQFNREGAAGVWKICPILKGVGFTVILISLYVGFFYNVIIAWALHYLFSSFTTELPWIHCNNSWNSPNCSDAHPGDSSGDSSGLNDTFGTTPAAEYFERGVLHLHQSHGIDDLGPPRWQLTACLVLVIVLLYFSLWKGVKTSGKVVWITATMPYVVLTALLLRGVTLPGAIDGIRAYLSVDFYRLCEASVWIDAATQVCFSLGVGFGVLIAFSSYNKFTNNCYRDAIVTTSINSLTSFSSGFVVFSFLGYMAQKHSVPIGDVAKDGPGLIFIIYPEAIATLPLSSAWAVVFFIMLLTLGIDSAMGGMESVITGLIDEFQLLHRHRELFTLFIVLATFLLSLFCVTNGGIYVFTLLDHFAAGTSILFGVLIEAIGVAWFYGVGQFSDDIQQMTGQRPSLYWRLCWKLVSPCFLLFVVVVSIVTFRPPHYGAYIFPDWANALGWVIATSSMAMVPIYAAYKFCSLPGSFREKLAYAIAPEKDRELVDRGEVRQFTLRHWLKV
Experiment: Transporter DAT Blocker
Kindly state IC50 for each of the entries shown.

1) CC(C)(C)c1ccc(C#CC(O)c2ccccc2)cc1 (racemic)
> 10 µM

Now consider the entry below.
Enter measured IC50, system DAT (Homo sapiens, UniProt Q01959), for the molecule shown: `Clc1cccc(C#Cc2n[nH]c3ncccc23)c1`
> 10 µM

----------
Target: UniProtKB P28222
Sequence (P28222 whole entry): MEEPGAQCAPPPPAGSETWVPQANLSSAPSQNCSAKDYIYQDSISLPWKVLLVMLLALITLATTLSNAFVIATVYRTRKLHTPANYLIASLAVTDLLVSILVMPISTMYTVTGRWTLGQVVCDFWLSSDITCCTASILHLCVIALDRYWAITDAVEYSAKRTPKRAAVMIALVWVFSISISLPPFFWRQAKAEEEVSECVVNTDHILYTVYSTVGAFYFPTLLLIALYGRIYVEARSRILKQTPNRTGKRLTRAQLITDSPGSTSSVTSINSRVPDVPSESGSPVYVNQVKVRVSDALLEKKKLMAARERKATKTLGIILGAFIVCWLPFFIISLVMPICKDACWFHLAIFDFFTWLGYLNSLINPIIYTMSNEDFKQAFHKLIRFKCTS
Test: cAMP HTR1B Agonist
pEC50: −log10 of the molar value.
Kindly state pEC50 for each of the entries shown.

1. CC(C)(C)c1ccc(C#CC(O)c2ccccc2)cc1 (racemic) [Compound 3.3]
< 5.00

Consider the compound Clc1cccc(C#Cc2n[nH]c3ncccc23)c1 [Compound 10.1] and give its recorded pEC50.
< 5.00

----------
Target: CCKAR (Homo sapiens, UniProt P32238)
Sequence (P32238 whole entry): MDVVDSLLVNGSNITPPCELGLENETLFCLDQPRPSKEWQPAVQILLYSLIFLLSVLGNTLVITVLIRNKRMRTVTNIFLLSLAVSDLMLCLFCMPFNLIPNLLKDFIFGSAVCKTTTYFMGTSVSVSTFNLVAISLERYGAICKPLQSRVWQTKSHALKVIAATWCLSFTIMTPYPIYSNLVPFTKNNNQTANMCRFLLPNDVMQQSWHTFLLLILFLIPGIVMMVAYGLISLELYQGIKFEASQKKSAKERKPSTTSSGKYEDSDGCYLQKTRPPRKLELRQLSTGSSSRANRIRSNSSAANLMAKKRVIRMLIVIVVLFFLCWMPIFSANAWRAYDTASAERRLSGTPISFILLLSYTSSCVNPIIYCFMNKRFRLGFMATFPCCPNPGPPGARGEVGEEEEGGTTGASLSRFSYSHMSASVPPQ
Experiment: Calcium Flux CCKAR Agonist
Conditions: Calcium Flux CCKAR Agonist; read-out: RC50, result type EC50
Kindly state EC50 for each of the entries shown.

1) CC(C)(C)c1ccc(C#CC(O)c2ccccc2)cc1 (racemic) [Compound 3.3]
> 10 µM

Now consider the entry below.
Consider the molecule Clc1cccc(C#Cc2n[nH]c3ncccc23)c1 [Compound 10.1] and give its recorded EC50.
> 10 µM

----------
Target: HTR2B (Homo sapiens, UniProt P41595)
Sequence (P41595 whole entry): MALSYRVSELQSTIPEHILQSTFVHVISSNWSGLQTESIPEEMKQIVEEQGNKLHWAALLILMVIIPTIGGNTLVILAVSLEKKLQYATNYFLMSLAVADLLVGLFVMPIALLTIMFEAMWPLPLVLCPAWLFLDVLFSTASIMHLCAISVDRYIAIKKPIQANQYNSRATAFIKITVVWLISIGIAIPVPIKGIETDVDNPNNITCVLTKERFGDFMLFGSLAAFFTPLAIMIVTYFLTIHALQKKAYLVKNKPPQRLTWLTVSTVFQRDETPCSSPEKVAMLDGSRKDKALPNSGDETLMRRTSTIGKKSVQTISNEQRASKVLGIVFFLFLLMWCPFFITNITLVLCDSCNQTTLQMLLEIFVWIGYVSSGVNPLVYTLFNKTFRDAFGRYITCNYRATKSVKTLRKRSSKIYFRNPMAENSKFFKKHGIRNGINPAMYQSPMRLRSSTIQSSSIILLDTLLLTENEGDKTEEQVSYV
Experiment: Calcium Flux HTR2B Agonist
EXPERIMENTAL READOUT: EC50

1. CC(C)(C)c1ccc(C#CC(O)c2ccccc2)cc1 (racemic)
> 10 µM

Consider the molecule `Clc1cccc(C#Cc2n[nH]c3ncccc23)c1` and give its recorded EC50.
> 10 µM
